Values compiled from patent US10941136B2.

testedOn: PI3Kβ (p110β/p85α)(h) (Homo sapiens)
Sequence (P42338 whole entry, one chain of several): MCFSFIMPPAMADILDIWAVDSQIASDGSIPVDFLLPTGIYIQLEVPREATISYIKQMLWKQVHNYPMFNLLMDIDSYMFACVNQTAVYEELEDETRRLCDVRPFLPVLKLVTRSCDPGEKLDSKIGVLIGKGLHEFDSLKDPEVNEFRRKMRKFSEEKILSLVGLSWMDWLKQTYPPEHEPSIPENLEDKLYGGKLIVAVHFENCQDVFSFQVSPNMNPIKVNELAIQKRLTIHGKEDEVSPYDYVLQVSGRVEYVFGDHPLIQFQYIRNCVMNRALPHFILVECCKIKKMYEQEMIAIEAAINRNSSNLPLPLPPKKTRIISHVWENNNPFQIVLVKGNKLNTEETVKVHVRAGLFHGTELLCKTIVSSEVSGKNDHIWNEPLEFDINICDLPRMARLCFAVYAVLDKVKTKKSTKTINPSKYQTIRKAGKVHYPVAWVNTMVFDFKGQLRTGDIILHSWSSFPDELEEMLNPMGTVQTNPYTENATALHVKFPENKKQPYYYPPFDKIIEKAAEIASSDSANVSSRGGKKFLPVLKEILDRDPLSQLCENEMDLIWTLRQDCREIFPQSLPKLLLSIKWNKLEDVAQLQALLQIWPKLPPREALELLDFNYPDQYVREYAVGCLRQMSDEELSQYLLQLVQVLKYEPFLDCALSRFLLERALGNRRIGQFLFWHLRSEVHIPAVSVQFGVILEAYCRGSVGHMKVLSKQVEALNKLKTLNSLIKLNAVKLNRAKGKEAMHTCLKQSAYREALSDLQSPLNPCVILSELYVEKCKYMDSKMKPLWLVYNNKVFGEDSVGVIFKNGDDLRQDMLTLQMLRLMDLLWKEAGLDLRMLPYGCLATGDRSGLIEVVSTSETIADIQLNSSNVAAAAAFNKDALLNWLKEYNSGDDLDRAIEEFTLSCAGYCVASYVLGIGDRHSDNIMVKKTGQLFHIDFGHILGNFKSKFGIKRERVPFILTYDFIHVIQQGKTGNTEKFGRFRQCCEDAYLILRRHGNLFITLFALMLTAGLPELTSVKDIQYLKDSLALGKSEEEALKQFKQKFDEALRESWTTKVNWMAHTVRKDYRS
assayRemarks: PI3K-HTRF in vitro enzyme assay, PI3Kβ
reportedConditions: enzyme 0.4 μg/ml
pIC50: −log10 of the molar value.
# pIC50 listing for each entry below
readoutType: pIC50

INSERT INTO measurements (compound, readouttype, recordedmeasurement) VALUES
  ('CCC[C@H](Nc1ncnc2ccc(C#N)cc12)c1nc2cccc(-c3cnc(OC)nc3)c2c(=O)n1-c1ccccc1 [Example 10]', 'pIC50', 5.12),
  ('C[C@H](Nc1ncnc2ccc(C#N)cc12)c1cc2cccc(-c3cnc(C4CC4)nc3)c2c(=O)n1-c1ccccc1 [Example 37]', 'pIC50', 5.06),
  ('CC(C)[C@H](Nc1ncnc2cccc(F)c12)c1cc2cccc(-c3cnc(N)nc3)c2c(=O)n1-c1ccccc1 [Example 46]', 'pIC50', 5.10),
  ('C[C@H](Nc1ncnc2cccc(F)c12)c1cc2cccc(-c3cnc(N)nc3)c2c(=O)n1-c1ccccc1 [Example 43]', 'pIC50', 5.05),
  ('C[C@H](Nc1ncnc2ccc(C#N)cc12)c1nc2cccc(-c3cnc(N)nc3)c2c(=O)n1-c1ccccc1 [Example 2]', 'pIC50', 5.17),
  ('COc1ncc(-c2cccc3cc([C@H](C)Nc4ncnc5ccc(C#N)cc45)n(-c4ccccc4)c(=O)c23)cn1 [Example 33]', 'pIC50', 5.17),
  ('CC[C@H](Nc1ncnc2cccc(F)c12)c1nc2cccc(-c3cnc(N)nc3)c2c(=O)n1-c1ccccc1 [Example 25]', 'pIC50', 5.02);

* * *

testedOn: UniProt P48736
Sequence (P48736 whole entry): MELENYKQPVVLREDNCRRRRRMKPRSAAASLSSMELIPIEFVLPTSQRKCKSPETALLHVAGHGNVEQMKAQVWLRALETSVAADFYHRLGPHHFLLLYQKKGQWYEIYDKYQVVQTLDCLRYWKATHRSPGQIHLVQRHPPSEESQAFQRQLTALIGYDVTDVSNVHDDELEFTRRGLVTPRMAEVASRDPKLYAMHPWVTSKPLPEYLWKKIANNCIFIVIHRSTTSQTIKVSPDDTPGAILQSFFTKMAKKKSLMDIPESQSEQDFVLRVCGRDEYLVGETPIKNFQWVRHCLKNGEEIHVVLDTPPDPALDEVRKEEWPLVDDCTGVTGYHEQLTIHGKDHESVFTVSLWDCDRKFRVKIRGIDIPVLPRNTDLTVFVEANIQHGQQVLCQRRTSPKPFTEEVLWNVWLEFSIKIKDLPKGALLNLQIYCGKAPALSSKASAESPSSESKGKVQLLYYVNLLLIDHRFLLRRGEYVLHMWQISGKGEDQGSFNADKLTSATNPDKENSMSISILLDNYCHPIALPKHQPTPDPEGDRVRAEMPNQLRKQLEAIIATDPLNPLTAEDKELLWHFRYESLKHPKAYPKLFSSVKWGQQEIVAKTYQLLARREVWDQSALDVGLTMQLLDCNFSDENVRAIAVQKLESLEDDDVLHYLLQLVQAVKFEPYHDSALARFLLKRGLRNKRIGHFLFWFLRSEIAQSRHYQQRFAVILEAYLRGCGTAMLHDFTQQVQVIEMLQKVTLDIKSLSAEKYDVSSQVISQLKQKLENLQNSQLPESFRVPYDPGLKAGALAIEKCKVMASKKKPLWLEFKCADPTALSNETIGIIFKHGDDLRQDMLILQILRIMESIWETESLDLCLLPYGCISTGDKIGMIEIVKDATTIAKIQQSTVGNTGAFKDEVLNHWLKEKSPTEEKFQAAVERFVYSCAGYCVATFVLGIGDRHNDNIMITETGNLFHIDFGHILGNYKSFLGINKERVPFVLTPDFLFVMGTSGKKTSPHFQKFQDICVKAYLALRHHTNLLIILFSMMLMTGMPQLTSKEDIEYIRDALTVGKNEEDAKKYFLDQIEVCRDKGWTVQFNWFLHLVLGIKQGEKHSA
// log10 IC50 lookup, one value per entry
readoutType: log10 IC50 (log10 of the value in µM)

INSERT INTO assay_data (substancesmiles, testedon, readouttype, recordedmeasurement) VALUES
  ('CCOc1ncc(-c2cccc3nc([C@H](C)Nc4ncnc5ccc(C#N)cc45)n(C4CC4)c(=O)c23)cn1', 'UniProt P48736', 'log10 IC50', -0.23),
  ('N#Cc1ccc2ncnc(N[C@H](c3nc4cccc(-c5cncnc5)c4c(=O)n3-c3ccccc3)C3CC3)c2c1', 'UniProt P48736', 'log10 IC50', -0.27),
  ('O=c1c2c(-c3cncnc3)cccc2nc([C@@H](Nc2ncnc3cccc(F)c23)C2CC2)n1-c1ccccc1', 'UniProt P48736', 'log10 IC50', 0.42),
  ('CC(C)[C@H](Nc1ncnc2ccc(C#N)cc12)c1nc2cccc(-c3cnc(N)nc3)c2c(=O)n1-c1ccccc1', 'UniProt P48736', 'log10 IC50', 0.46),
  ('CC[C@H](Nc1ncnc2cccc(F)c12)c1nc2cccc(-c3cnc(C)nc3)c2c(=O)n1-c1ccccc1', 'UniProt P48736', 'log10 IC50', 0.70),
  ('COc1ncc(-c2cccc3nc([C@@H](Nc4ncnc5ccc(C#N)cc45)C4CC4)n(-c4ccccc4)c(=O)c23)cn1', 'UniProt P48736', 'log10 IC50', -0.44),
  ('C[C@H](Nc1ncnc2ccc(C#N)cc12)c1nc2cccc(-c3cncnc3)c2c(=O)n1-c1ccccc1', 'UniProt P48736', 'log10 IC50', -0.04);

* * *

testedOn: PI3Kα (p110α/p85α)(h) (Homo sapiens, UniProt P42336)
Sequence (P42336 whole entry): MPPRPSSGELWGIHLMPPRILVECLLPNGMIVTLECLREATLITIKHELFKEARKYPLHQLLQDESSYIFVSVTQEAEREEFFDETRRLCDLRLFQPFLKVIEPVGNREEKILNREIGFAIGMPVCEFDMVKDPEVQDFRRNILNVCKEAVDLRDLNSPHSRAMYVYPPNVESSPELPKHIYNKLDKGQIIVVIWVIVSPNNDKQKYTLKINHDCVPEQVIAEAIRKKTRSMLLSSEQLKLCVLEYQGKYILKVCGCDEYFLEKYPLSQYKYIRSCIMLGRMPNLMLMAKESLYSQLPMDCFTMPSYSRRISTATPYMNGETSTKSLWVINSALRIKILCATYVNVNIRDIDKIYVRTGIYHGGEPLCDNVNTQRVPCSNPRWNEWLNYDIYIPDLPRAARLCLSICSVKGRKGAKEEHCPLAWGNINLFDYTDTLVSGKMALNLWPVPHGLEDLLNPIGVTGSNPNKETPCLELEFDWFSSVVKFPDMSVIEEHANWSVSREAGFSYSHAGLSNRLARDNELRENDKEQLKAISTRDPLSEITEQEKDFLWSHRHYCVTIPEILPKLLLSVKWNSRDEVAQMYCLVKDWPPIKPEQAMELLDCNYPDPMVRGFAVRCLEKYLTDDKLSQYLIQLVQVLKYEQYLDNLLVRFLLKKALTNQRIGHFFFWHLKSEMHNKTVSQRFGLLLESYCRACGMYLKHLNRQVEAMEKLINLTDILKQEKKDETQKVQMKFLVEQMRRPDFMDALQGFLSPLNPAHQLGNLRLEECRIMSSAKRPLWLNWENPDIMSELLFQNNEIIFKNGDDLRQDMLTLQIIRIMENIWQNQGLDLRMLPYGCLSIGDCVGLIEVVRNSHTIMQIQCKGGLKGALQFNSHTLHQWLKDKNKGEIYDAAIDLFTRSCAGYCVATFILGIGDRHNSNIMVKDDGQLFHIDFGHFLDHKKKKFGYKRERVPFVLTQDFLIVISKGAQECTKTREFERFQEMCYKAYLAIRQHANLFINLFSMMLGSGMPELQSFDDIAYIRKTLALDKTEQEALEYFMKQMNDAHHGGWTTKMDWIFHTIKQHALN
Sequence (P27986 whole entry partner): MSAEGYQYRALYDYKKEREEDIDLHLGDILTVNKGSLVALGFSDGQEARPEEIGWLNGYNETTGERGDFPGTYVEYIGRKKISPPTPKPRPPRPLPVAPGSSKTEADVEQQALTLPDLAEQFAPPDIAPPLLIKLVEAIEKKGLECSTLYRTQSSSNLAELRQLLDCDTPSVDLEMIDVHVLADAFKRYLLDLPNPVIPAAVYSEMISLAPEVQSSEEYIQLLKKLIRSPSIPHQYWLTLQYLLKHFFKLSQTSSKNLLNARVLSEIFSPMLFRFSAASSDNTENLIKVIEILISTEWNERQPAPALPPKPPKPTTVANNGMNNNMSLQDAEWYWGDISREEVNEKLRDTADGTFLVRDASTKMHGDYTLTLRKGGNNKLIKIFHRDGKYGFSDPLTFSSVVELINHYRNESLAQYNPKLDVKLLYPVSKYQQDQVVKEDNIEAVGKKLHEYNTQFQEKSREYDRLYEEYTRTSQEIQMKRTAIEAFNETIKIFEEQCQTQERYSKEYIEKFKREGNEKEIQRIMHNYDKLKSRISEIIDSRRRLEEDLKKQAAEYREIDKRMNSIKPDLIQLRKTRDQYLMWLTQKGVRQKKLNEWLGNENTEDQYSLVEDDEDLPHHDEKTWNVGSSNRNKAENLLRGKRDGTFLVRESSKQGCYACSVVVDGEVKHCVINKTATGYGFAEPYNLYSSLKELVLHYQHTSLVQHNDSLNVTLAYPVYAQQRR
assayRemarks: PI3K-HTRF in vitro enzyme assay, PI3Kα
reportedConditions: enzyme 0.1 μg/ml
readoutType: IC50

INSERT INTO measurements (compound, testedon, recordedmeasurement) VALUES
  ('Cc1ncc(-c2cccc3nc([C@H](C)Nc4ncnc5ccc(C#N)cc45)n(-c4ccccc4)c(=O)c23)cn1 [Example 3]', 'PI3Kα (p110α/p85α)(h) (Homo sapiens, UniProt P42336)', '1770 nM'),
  ('C[C@H](Nc1ncnc2ccc(C#N)cc12)c1nc2cccc(-c3cnc(N)nc3)c2c(=O)n1-c1ccccc1 [Example 2]', 'PI3Kα (p110α/p85α)(h) (Homo sapiens, UniProt P42336)', '598 nM'),
  ('Nc1ncc(-c2cccc3nc([C@@H](Nc4ncnc5cccc(F)c45)C4CC4)n(-c4ccccc4)c(=O)c23)cn1 [Example 31]', 'PI3Kα (p110α/p85α)(h) (Homo sapiens, UniProt P42336)', '652 nM');

* * *

testedOn: PI3Kδ (p110δ/p85α)(h) (Homo sapiens, UniProt O00329)
Sequence (O00329 whole entry, one chain of several): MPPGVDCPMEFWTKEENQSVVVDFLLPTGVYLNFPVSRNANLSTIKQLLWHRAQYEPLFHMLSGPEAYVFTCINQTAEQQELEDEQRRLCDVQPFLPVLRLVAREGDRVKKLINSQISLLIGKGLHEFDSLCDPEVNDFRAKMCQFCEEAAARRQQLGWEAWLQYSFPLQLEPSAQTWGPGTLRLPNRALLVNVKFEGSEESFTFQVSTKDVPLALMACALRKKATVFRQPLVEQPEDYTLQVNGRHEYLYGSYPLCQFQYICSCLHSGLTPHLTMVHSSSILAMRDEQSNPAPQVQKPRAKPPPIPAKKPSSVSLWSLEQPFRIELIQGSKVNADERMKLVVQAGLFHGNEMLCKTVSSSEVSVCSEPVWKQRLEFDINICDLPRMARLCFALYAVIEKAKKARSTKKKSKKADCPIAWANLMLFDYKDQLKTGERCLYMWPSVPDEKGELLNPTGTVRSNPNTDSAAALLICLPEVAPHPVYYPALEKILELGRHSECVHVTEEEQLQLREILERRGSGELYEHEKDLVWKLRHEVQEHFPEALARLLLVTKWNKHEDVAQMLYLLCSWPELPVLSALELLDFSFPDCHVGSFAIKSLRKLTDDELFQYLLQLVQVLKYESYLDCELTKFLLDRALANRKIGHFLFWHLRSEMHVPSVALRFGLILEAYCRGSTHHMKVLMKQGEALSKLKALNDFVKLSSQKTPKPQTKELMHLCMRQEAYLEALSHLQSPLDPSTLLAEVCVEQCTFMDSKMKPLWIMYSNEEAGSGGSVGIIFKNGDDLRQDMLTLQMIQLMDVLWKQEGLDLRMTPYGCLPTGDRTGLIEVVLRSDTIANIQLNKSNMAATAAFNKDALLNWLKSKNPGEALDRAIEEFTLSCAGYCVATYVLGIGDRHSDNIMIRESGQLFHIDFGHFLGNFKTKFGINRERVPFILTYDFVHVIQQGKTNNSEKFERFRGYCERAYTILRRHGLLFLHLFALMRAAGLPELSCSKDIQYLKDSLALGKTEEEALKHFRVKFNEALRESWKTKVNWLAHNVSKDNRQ
assayRemarks: PI3K-HTRF in vitro enzyme assay, PI3Kδ
reportedConditions: enzyme 0.1 μg/ml
Checkbox rule: IC50 lower than 0.02 µM = 1; IC50 not lower than 0.02 µM = -1.

INSERT INTO results (molecule, answerlabel) VALUES
  ('CC[C@H](Nc1ncnc2cccc(F)c12)c1nc2cccc(-c3cnc(F)nc3)c2c(=O)n1-c1ccccc1 [Example 26]', 1),
  ('CCOc1ncc(-c2cccc3cc([C@H](CC)Nc4ncnc5ccc(C#N)cc45)n(-c4ccccc4)c(=O)c23)cn1 [Example 41]', 1),
  ('CCC[C@H](Nc1ncnc2ccc(C#N)cc12)c1nc2cccc(-c3cnc(N)nc3)c2c(=O)n1-c1ccccc1 [Example 12]', 1),
  ('CCOc1ncc(-c2cccc3nc([C@@H](Nc4ncnc5ccc(C#N)cc45)C4CC4)n(-c4ccccc4)c(=O)c23)cn1 [Example 16]', 1),
  ('CCOc1ncc(-c2cccc3nc([C@H](C)Nc4ncnc5ccc(C#N)cc45)n(C4CC4)c(=O)c23)cn1 [Example 19]', -1),
  ('CC[C@H](Nc1ncnc2cccc(F)c12)c1nc2cccc(-c3cncnc3)c2c(=O)n1-c1ccccc1 [Example 24]', 1),
  ('CC[C@H](Nc1ncnc2cccc(F)c12)c1nc2cccc(-c3cnc(C)nc3)c2c(=O)n1-c1ccccc1 [Example 27]', -1),
  ('CC[C@H](Nc1ncnc2ccc(C#N)cc12)c1cc2cccc(-c3cnc(C)nc3)c2c(=O)n1-c1ccccc1 [Example 42]', 1),
  ('O=c1c2c(-c3cncnc3)cccc2nc([C@@H](Nc2ncnc3cccc(F)c23)C2CC2)n1-c1ccccc1 [Example 30]', 1);

* * *

pIC50 listing for selected compounds.
testedOn: PI3Kα (p110α/p85α)(h) (Homo sapiens, UniProt P42336)
Construct: purchased Upstate (Millipore Co) #14-602
assayRemarks: PI3K-HTRF in vitro enzyme assay, PI3Kα
Assay type: biochemical
reportedConditions: enzyme 0.1 μg/ml
pIC50: −log10 of the molar value.
readoutType: pIC50

INSERT INTO results (substancesmiles, recordedmeasurement) VALUES
  ('C[C@H](Nc1ncnc2cccc(F)c12)c1cc2cccc(-c3cnc(F)nc3)c2c(=O)n1-c1ccccc1', 5.25),
  ('CCC[C@H](Nc1ncnc2ccc(C#N)cc12)c1nc2cccc(-c3cnc(C)nc3)c2c(=O)n1-c1ccccc1', 5.55),
  ('C[C@H](Nc1ncnc2ccc(C#N)cc12)c1nc2cccc(-c3cncnc3)c2c(=O)n1-c1ccccc1', 5.45),
  ('N#Cc1ccc2ncnc(N[C@H](c3nc4cccc(-c5cncnc5)c4c(=O)n3-c3ccccc3)C3CC3)c2c1', 6.08),
  ('CC[C@H](Nc1ncnc2cccc(F)c12)c1nc2cccc(-c3cnc(F)nc3)c2c(=O)n1-c1ccccc1', 5.35);
